system: KM12 (colon cancer); assay: NCI-60 SRB cytotoxicity screen; assay type: cell-based; conditions: Homo sapiens; KM12, single dose 10 μM; read-out: growth inhibition (GI%)
Metric: inhibition at 10 µM (%)
State the answer as a number, implicitly in %.

**Query** Item under review: CCc1cccc2cc(C3C=C(c4cc(OC)c(OC)c(OC)c4)NC(=S)N3)c(Cl)nc12 (stereo not shown) [Compound 6c] . Reported inhibition at 10 µM?
**Result** 28.1

**Query** Consider the compound CCc1cccc2cc(C=CC(=O)c3ccc(OC)c(OC)c3)c(Cl)nc12 [Compound 3b] and give its measured inhibition at 10 µM.
**Result** 23.5

**Query** Consider the compound shown here: CCc1cccc2cc(-c3cc(-c4cc(OC)c(OC)c(OC)c4)[nH]c(=O)c3C#N)c(Cl)nc12 [Compound 4c] What is its recorded inhibition at 10 µM?
**Result** 55.1
